Test system: 134 cancer cell lines
Assay: Cell viability assay (ATPlite, 72 hours), IC50 on cancer cell line panel
Settings: Homo sapiens, HCT-116, read-out: IC50 in cell proliferation assay, cell line HCT 116
test readout: IC50 (nM)

INSERT INTO results (compound_structure_string, prefix_operator, reported_result) VALUES
  ('FC(F)(F)c1ccc(CNc2ccc(Cc3c[nH]c4ncc(Cl)cc34)cn2)cn1', '>', 31600),
  ('COc1ccc(CN2C3CC2CN(c2ccc(-c4cc(OCC(C)(C)O)cn5ncc(C#N)c45)cn2)C3)cn1', '=', 14900),
  ('Cc1cc(Nc2ncc(Cl)c(Nc3ccccc3S(=O)(=O)C(C)C)n2)c(OC(C)C)cc1C1CCNCC1', '=', 2720),
  ('Cc1cc(Nc2ncnc3ccc(NC4=NC(C)(C)CO4)cc23)ccc1Oc1ccn2ncnc2c1', '=', 21900),
  ('O=C(c1ccc(F)c(F)c1Nc1ccc(I)cc1F)N1CC(O)([C@@H]2CCCCN2)C1', '=', 106),
  ('Cn1cnc2c(F)c(Nc3ccc(Br)cc3Cl)c(C(=O)NOCCO)cc21', '=', 2.26),
  ('C[C@H](Nc1ncnc2nc[nH]c12)c1cc2cccc(Cl)c2c(=O)n1-c1ccccc1', '=', 27600),
  ('CCc1nc(C(N)=O)c(Nc2ccc(N3CCC(N4CCN(C)CC4)CC3)c(OC)c2)nc1NC1CCOCC1', '=', 418);

* * *

Target: panel of 255 wild-type kinases (Homo sapiens, UniProt Q9H4B4)
Sequence (Q9H4B4 whole entry): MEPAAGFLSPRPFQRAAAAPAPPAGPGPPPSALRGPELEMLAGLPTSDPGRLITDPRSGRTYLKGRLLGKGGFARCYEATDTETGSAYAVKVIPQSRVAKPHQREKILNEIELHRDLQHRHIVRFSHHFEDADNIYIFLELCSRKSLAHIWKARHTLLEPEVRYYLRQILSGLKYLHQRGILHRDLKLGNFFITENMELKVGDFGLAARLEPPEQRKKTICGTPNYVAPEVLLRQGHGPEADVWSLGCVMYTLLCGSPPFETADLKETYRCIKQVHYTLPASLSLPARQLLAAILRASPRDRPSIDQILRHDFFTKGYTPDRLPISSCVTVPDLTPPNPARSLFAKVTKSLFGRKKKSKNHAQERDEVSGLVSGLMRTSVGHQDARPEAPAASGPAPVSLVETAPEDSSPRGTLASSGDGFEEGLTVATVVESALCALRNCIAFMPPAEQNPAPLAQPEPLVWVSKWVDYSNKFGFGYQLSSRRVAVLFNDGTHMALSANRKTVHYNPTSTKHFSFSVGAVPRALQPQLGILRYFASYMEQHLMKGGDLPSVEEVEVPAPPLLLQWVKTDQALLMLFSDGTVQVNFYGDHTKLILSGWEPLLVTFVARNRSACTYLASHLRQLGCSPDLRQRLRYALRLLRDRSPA
Assay: Kinase panel profiling at 1 µmol/L (MSA or IMAP), percentage inhibition
Assay type: biochemical
Conditions: kinase PLK3; 1 µmol/L single concentration; read-out: %-inhibition at 1 µmol/L, PLK3
Measured inhibition at 1 µM, listed per entry.
test readout: inhibition at 1 µM (%)

INSERT INTO measurements (compound_structure_string, units_symbol, reported_result) VALUES
  ('Cn1cnc2c(F)c(Nc3ccc(Br)cc3F)c(C(=O)NOCCO)cc21', '%', -0.0416),
  ('CCn1c(=O)c(-c2cc(NC(=O)Nc3ccccc3)c(F)cc2Br)cc2cnc(NC)cc21', '%', 4),
  ('COc1ccc(CN2C3CC2CN(c2ccc(-c4cc(OCC(C)(C)O)cn5ncc(C#N)c45)cn2)C3)cn1', '%', -1.64),
  ('C[C@H](Nc1ncnc2nc[nH]c12)c1cc2cccc(Cl)c2c(=O)n1-c1ccccc1', '%', 4.56),
  ('CCN1C(=O)N(c2c(F)c(OC)cc(OC)c2F)Cc2cnc3[nH]c(CN4CCOCC4)cc3c21', '%', -1.19),
  ('C=CC(=O)N1CCC([C@@H]2CCNc3c(C(N)=O)c(-c4ccc(Oc5ccccc5)cc4)nn32)CC1', '%', -4.39),
  ('O=C(Nc1cnn2ccc(N3CCC[C@@H]3c3cc(F)ccc3F)nc12)N1CC[C@H](O)C1', '%', -0.714),
  ('C[C@H]1Oc2cc(cnc2N)-c2c(nn(C)c2C#N)CN(C)C(=O)c2ccc(F)cc21', '%', 2.15);

* * *

Molecular target: panel of 255 wild-type kinases (Homo sapiens, UniProt P53355)
Sequence (P53355 whole entry): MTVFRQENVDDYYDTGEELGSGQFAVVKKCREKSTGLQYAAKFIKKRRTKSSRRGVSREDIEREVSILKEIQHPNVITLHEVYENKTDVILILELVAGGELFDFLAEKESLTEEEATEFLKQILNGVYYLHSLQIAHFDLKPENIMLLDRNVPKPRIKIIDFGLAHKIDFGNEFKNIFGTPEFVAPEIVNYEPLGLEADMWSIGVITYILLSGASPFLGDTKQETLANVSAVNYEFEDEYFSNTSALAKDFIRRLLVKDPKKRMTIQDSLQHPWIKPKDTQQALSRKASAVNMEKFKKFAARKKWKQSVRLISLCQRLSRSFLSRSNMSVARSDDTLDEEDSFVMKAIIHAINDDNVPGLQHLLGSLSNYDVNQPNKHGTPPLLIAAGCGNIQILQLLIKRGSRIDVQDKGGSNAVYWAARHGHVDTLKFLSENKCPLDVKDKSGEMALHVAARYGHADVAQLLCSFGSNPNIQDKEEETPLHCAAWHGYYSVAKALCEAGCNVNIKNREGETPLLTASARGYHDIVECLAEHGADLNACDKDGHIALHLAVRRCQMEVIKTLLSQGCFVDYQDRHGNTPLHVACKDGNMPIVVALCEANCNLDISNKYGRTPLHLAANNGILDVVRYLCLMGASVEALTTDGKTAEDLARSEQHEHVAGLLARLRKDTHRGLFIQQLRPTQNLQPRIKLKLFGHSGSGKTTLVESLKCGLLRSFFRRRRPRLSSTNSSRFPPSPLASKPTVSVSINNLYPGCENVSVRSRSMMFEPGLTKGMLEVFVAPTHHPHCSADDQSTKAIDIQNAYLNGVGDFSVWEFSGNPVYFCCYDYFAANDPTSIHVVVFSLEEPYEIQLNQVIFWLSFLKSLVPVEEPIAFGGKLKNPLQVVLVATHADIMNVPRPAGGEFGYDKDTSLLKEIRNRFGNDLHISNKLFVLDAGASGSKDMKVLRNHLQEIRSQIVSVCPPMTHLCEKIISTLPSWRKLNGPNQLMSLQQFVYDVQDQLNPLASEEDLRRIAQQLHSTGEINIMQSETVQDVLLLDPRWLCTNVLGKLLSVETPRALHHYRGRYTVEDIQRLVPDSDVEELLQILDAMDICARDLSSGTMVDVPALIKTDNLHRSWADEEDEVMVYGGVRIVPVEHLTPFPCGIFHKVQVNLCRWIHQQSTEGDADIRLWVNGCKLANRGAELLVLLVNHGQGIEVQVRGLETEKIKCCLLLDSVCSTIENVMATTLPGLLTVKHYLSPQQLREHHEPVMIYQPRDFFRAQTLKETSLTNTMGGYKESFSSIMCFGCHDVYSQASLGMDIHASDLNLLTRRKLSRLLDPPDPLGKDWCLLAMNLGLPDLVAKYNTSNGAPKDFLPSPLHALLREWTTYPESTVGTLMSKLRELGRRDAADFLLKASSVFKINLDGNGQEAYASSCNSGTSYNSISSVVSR
Assay: Kinase panel profiling at 1 µmol/L (MSA or IMAP), percentage inhibition
Type: biochemical
Settings: kinase DAPK1; 1 µmol/L single concentration; read-out: %-inhibition at 1 µmol/L, DAPK1
test readout: inhibition at 1 µM

INSERT INTO measurements (compound_structure_string, experimental_target, reported_result) VALUES
  ('Cc1nc(NC(=O)N2CCC[C@H]2C(N)=O)sc1-c1ccnc(C(C)(C)C(F)(F)F)c1', 'panel of 255 wild-type kinases (Homo sapiens, UniProt P53355)', '-3%'),
  ('Cc1cc(Nc2ncnc3ccc(NC4=NC(C)(C)CO4)cc23)ccc1Oc1ccn2ncnc2c1', 'panel of 255 wild-type kinases (Homo sapiens, UniProt P53355)', '1.6%'),
  ('Cn1cc(-c2cc3c(N4CCN(c5ncc([C@@](C)(N)c6ccc(F)cc6)cn5)CC4)ncnn3c2)cn1', 'panel of 255 wild-type kinases (Homo sapiens, UniProt P53355)', '0.0958%'),
  ('C=CC(=O)N1CCC([C@@H]2CCNc3c(C(N)=O)c(-c4ccc(Oc5ccccc5)cc4)nn32)CC1', 'panel of 255 wild-type kinases (Homo sapiens, UniProt P53355)', '-2%');
